Recorded growth values for a group of compounds are listed next.
Test system: SN12C renal
measurementNotes: NCI-60 one-dose screen, 48 h (100 = growth as untreated, 0 = no growth, -100 = all killed)
experimentalParameters: 10 µM unless noted
The panel holds about 83,000 compounds, 20% with a hit somewhere; the sample as a whole holds those more often.
Just the number please, in %, no unit attached.

Example cases with answers are listed next.
[
  {
    "compound": "C[C@]12CC[C@H](O)C[C@@H]1CC[C@@H]1[C@@H]2CC[C@]2(C)OC(=O)CC[C@@H]12",
    "tgt": "SN12C renal",
    "outputUnit": "%",
    "growth": 96.8
  },
  {
    "compound": "CCOP(=O)(NC)OCC",
    "tgt": "SN12C renal",
    "outputUnit": "%",
    "growth": 106
  },
  {
    "compound": "Cc1ccc(N2CCN(CCC#N)CC2)cc1",
    "tgt": "SN12C renal",
    "outputUnit": "%",
    "growth": 96
  }
]

# evaluate next
Qu. I'd like to know its growth. The compound in question is ClC1OC(Cl)(Cl)C(Cl)(Cl)OC1(Cl)Cl (centres undefined)
Ans. 95.1
